assay: Quantitative high throughput screen for delayed death inhibitors of the malarial parasite plastid, 48 hour incubation (AID 488752); conditions: Plasmodium falciparum growth; series mostly up to 28.7 µM; further: nearly all actives have a fitted effect of over 65% in size
Inconclusive results are not listed. Activity calls are given as the source filed them. The call rests on the fitted dose curve; in most records, active means well fitted inhibition curve with a large enough effect; inconclusive means small, poorly fitted or top-dose-only effect, or effect the other way; inactive means flat fitted curve, though single readings scatter.
Tick one outcome: T (active), F (inactive)

Take a look at these entries with their results.
# molecule, class
data = [
    ("COc1cc(C(=O)OCCCN2CCCN(CCCOC(=O)c3cc(OC)c(OC)c(OC)c3)CC2)cc(OC)c1OC", "T"),
    ("Cc1ccc(Cl)c(Nc2ccccc2C(=O)O)c1Cl", "F"),
    ("COCC(=O)O[C@]1(CCN(C)CCCc2nc3ccccc3[nH]2)CCc2cc(F)ccc2[C@@H]1C(C)C", "T"),
    ("Cc1nnc(SCC2=C(C(=O)O)N3C(=O)[C@@H](NC(=O)Cn4cnnn4)[C@H]3SC2)s1", "F"),
]

// switching to the query molecule
// outcome(item) with item = NC(Cc1ccc(Cl)cc1)C(=O)O (stereo not given) F
